B1: HDV Ribozyme (parent)
chain: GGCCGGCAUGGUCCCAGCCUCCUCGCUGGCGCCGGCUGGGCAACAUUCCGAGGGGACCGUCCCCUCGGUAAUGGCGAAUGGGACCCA

# Variants of: B1
# assay-overview: self-cleavage, relative activity (ratio to wild type); higher = more cleavage; co-transcriptional
Collected self-cleavage values appear next to each entry.
# answer = number (no unit)

For orientation, consider the following solved cases.
sequence=GGCCGGCAUGGUCCCAGCCUCCUCGCUGGCGCCGGCUGGGCAGCAGUCCGAGGGGACCGUCCCCUCGGUAAUGGCGAAUGGGACCCA readout_kind=self-cleavage quantitative_readout=0.499
sequence=GGCCGGCUUGGUCCCAGCCUCCUCGCUGGCGCCGGCUGGGCAACAUUCCGAGGGGACCGUCCCCUCGGUAAUGGCGAAUGGGAUCCA readout_kind=self-cleavage quantitative_readout=0.506
sequence=GGCCGGCAUGGUCCCAGCCUCCUCGCUGGCGCCGGCUGGGCAACAUUUCGAGGGGACCGUCCCCUCGGUAAUGGAGAAUGGGACCCA readout_kind=self-cleavage quantitative_readout=0.199
sequence=GGCCGGCAUGGUCCCAGCCUCCUCGCUGGCGCCGACUGGGCAACAUUCCGAGGGGACCAUCCCCUCGGUAAUGGCGAAUGGGACCCA readout_kind=self-cleavage quantitative_readout=0.494
sequence=CGCCGGCAUGGUCCCGGCCUCCUCGCUGGCGCCGGCUGGGCAACAUUCCGAGGGGACCGUCCCCUCGGUAAUGGCGAAUGGGACCCA readout_kind=self-cleavage quantitative_readout=0.196

Query block: Entry `GGCCGGCAUGGUCCAAGCCUCCUCGCUGGCGCCGGCUGGGCAACAUUCCGAGGGGACCGUCCCCUCGAUAAUGGCGAAUGGGACCCA` needs its self-cleavage filled in; supply it.
Result block: 0.511

Query block: Entry `GGCCGGCAUGGUCCCAGCCUCCUCGCUGGCGCUGGCUGGGCAACAUUCCGAGGGGACCGUCCCCUCGGUAAUGGCGAAUGGGGCCCA` needs its self-cleavage filled in; supply it.
Result block: 0.511

Query block: Entry `GGCCGGCAUGGUCCCAGCCUCCUCGCUGGCGCCGGCUGGGCAACAUUCCGAUGGGACCGUCCCCUCUGUAAUGGCGAAUGGGACCCA` needs its self-cleavage filled in; supply it.
Result block: 0.205
